Hey, just so you know, these numbers are from patent US12435087B2.

System under test: DCN1 (DCUND1) protein PONY domain (Homo sapiens (Human), UniProt Q96GG9)
Sequence (Q96GG9 60-248): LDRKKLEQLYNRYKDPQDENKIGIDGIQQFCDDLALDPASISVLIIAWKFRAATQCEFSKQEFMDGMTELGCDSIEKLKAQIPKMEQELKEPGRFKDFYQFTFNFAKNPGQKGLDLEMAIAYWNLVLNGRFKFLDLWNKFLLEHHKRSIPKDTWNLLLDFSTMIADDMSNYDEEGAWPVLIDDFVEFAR
Protocol summary: TR-FRET assay (binding to DCN-1, displacement of FAM-labeled probe)
Applied conditions: 24 hr after treatment with compound; read-out: TR FRET IC50 24 hr
Observation type: IC50

Guide cases for IC50, answers given:
>  <Molecule>
C=C(C(=O)NCc1cccc([C@@H]2c3cnn(-c4ccccc4)c3N(CC)C(=O)[C@H]2NC(=O)c2ccn(CCF)n2)c1)C(C)N(C)C1COC1 (stereo partly drawn)

>  <System under test>
DCN1 (DCUND1) protein PONY domain (Homo sapiens (Human), UniProt Q96GG9)

>  <IC50>
≤ 200 nM

$$$$
>  <Molecule>
C=C(CN1CCOCC1)C(=O)NCc1cccc([C@@H]2c3cnn(-c4ccccc4)c3N(CC)C(=O)[C@H]2NC(=O)c2ccn(CCF)n2)c1

>  <System under test>
DCN1 (DCUND1) protein PONY domain (Homo sapiens (Human), UniProt Q96GG9)

>  <IC50>
≤ 200 nM

$$$$

For the next question, use this molecule.
Q) Report measured IC50; entry is CCN1C(=O)[C@H](NC(=O)c2cccc(C(F)(F)F)c2)[C@@H](c2cccc(N3CC=CS3(=O)=O)c2)c2c(C)nn(-c3ccccc3)c21 (racemic)
A) 200 to 1000 nM

* * *

System under test: DCN1 (DCUND1) protein PONY domain (Homo sapiens (Human))
Protocol summary: TR-FRET assay (binding to DCN-1, displacement of FAM-labeled probe)
Applied conditions: 24 hr after treatment with compound; read-out: TR FRET IC50 24 hr
pIC50: −log10 of the molar value.
Recorded pIC50, one value per entry.

Guide cases for pIC50, answers given:
>  <Compound>
C=C(CN1CC2(CCC2O)C1)C(=O)NCc1cccc([C@@H]2c3cnn(-c4ccccc4)c3N(CC)C(=O)[C@H]2NC(=O)c2cccc(C(F)(F)F)c2)c1 (stereo partly drawn) [Compound I-375]

>  <pIC50>
≥ 6.70

$$$$
>  <Compound>
CCN1C(=O)[C@@H](NC(=O)c2nccc(C(F)(F)F)n2)[C@H](c2ccccc2/C=C\C#N)c2cnn(-c3ccccc3)c21 (racemic) [Compound I-260]

>  <pIC50>
5.52 to 6.00

$$$$
>  <Compound>
C=C(CN1CCOCC1)C(=O)NCc1cccc([C@@H]2c3cnn(-c4ccccc4)c3N(CC)C(=O)[C@H]2NC(=O)c2ccn(C)n2)c1 [Compound I-338]

>  <pIC50>
≥ 6.70

$$$$
>  <Compound>
C=C(CN1CC2CCC(C1)O2)C(=O)NCc1cccc([C@@H]2c3cnn(-c4ccccc4)c3N(CC)C(=O)[C@H]2NC(=O)c2ccn(C(F)(F)F)n2)c1 [Compound I-347]

>  <pIC50>
≥ 6.70

$$$$
>  <Compound>
CCN1C(=O)[C@H](NC(=O)c2cccc(C(F)(F)F)c2)[C@@H](c2cccc(CNC(=O)C3=C(C(=O)OC)CCC3)c2)c2cnn(-c3ccccc3)c21 [Compound I-119]

>  <pIC50>
5.52 to 6.00

$$$$

Q) Report measured pIC50; entry is C/C=C(\CN1CCOCC1)C(=O)NCc1cccc([C@@H]2c3cnn(-c4ccccc4)c3N(CC)C(=O)[C@H]2NC(=O)c2cccc(C(F)(F)F)c2)c1 [Compound I-152]
A) ≥ 6.70

Q) Report measured pIC50; entry is C/C=C(\CN1CCN(C2COC2)CC1)C(=O)NCc1cccc([C@@H]2c3cnn(-c4ccccc4)c3N(CC)C(=O)[C@H]2NC(=O)c2ccn(C3CC3)n2)c1 [Compound I-288]
A) ≥ 6.70

Q) Report measured pIC50; entry is C=C(CN1CCC1)C(=O)Nc1cccc([C@H]2c3c(C)nn(-c4ccccc4)c3N(CC)C(=O)[C@@H]2NC(=O)c2cccc(C(F)(F)F)c2)c1 (racemic) [Compound I-137]
A) ≥ 6.70
